test: Quantitative highthroughput screen to assess conditional lethalithy of SEM cells grown in Human Plasma-Like Medium with dialyzed fetal bovine serum (HPLM+ds) (AID 1963882); settings: SEM B-ALL cells in HPLM+ds, CellTiter-Glo viability, 48 h; series mostly up to 45.8 µM; also: nearly all actives have a fitted effect of over 35% in size
Records with an inconclusive call do not appear. Activity calls are given as the source filed them. Calls follow the shape of the dose curve; as a rule, active = well fitted cell-killing curve with a large enough effect; inconclusive = small, poorly fitted or top-dose-only effect, or effect the other way; inactive = no such curve, though single readings can be large or run the other way.
Assign a class; possible classes are t (active), f (inactive)

Please review the following examples before continuing.
CC(C)(C)c1cc(C=C(C#N)C#N)cc(Br)c1O | f
Cc1cccc(C)c1NC(=O)CN1CCCC1=O | f
COC(=O)[C@@H](N)CCCN=C(N)N[N+](=O)[O-] | f
CC(=CCCC1=CCC(C2=CC(=O)OC2O)OC1O)CCC1=C(C)CCCC1(C)C (stereo not given) | f
CC(C)N[C@@H]1CCn2c(=O)[nH]c3cccc(c32)[C@@H]1O | f

Query :: Hello, I am checking results. What call was entered for COc1ccc(C(=O)c2c(C)n(CCN3CCOCC3)c3cc(I)ccc23)cc1 ?
Result :: t

Query :: Hello, I am checking results. What call was entered for CCCC[N+]1(C)[C@H]2CC(OC(=O)[C@H](CO)c3ccccc3)C[C@H]1[C@H]1O[C@H]12 (stereo not given in full) ?
Result :: f

Query :: Hello, I am checking results. What call was entered for C[C@]12CC[C@H]3[C@@H](CCC4=CC(=O)CC[C@@]43C)[C@H]1CC[C@H]2O ?
Result :: f

Query :: Hello, I am checking results. What call was entered for CC1=C(O)C(=O)C=C2C1=CC=C1[C@@]2(C)CC[C@@]2(C)[C@@H]3C[C@](C)(C(=O)O)CC[C@]3(C)CC[C@]12C ?
Result :: t

====

assay: Cellular viability qHTS for adrenocortical cancer (ACC) cell line SW-13 (AID 1963989); details: SW-13 ACC cells viability, CellTiter-Glo, 48 h; active compounds read low;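 also: cells grown in serum-free medium with ITS supplement; % is scaled to controls: 0 for no effect and ±100 for the full control effect; nearly all actives have a fitted effect of over 65% in size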
Results filed as inconclusive are left out.
measure_name: activity (max response) (%)
Report the value in % with no unit label.

Examples with answers:
O=C1OC(CCN2CCCCC2)OC1(c1ccccc1)c1ccccc1 (centres undefined) | 2.23
NC1=NC(=O)C(c2ccccc2)O1 (centres undefined) | 8.75
O=c1cccc2n1CC1CNC[C@H]2C1 | -2.44
CC(=O)Nc1cc([As](=O)(O)O)ccc1O | 8.13

Query :: For Nc1ccc(Cl)cc1 , write its activity (max response).
Result :: 5.53

Query :: For ClC1=C(Cl)C2(Cl)C(CBr)CC1(Cl)C2(Cl)Cl (centres undefined) , write its activity (max response).
Result :: -7.86

Query :: For Cc1c(Cl)c(=O)oc2cc(OP(=O)(OCCCl)OCCCl)ccc12 , write its activity (max response).
Result :: -15.3

Query :: For COc1cc(OC)c(OC)cc1C=O , write its activity (max response).
Result :: 8.71

Query :: For O=C(Nc1ccc(Br)cc1)c1cc(Br)cc(Br)c1O , write its activity (max response).
Result :: -19.7

====

test: Cellular viability qHTS for adrenocortical cancer (ACC) cell line NCI-H295R (AID 1963990); conditions: CellTiter-Glo ATP luminescence, 48 h; series mostly up to 46.1 µM; also: nearly all actives have a fitted effect of over 60% in size
Records with an inconclusive call do not appear. Active and inactive are the calls of the source. Calls follow the shape of the dose curve; as a rule, active = well fitted cell-killing curve with a large enough effect; inconclusive = small, poorly fitted or top-dose-only effect; inactive = flat fitted curve, though single readings scatter.
Assign a class; possible classes are YES (active), NO (inactive)

Please review the following examples before continuing.
CCCCCCCCCCCC[N+](C)(C)CCOc1ccccc1 | YES
O=c1[nH]c2cc(Cl)ccc2n1C1CCNCC1 | NO
COc1ccc(C(c2ccc(OC)cc2)C(Cl)(Cl)Cl)cc1 | YES
CNC(=O)c1ccc(N2C(=S)N(c3ccc(C#N)c(C(F)(F)F)c3)C(=O)C23CCC3)cc1F | NO
C[N+]1(CCC(C(N)=O)(c2ccccc2)c2ccccc2)CCCCC1 | NO
C[C@]12CCC(=O)C(O)=C1CC[C@@H]1[C@@H]2CC[C@]2(C)C(=O)CC[C@@H]12 | NO
O=c1cccc2n1CC1CNC[C@H]2C1 | NO
CC(CC(C(N)=O)(c1ccccc1)c1ccccc1)N(C)C (centres undefined) | NO

Query :: Hello, I am checking results. What call was entered for COc1cc(C[C@@H](C)N)c(OC)cc1C ?
Result :: NO

Query :: Hello, I am checking results. What call was entered for CC1COC2(c3ccccc3Cl)c3cc(Cl)ccc3NC(=O)CN12 (centres undefined) ?
Result :: YES

Cited source for all entries: PubChem BioAssay (NCATS)
